Sourced from ChEMBL document CHEMBL3507680

Assay: Human HepG2 cell viability assay in 384 well format
Assay type: toxicity, cell-based
Design: dose 125 nL, time 70.5 hour; concentration not given beside the values
Settings: HepG2 cells, read-out: Inhibition
measurement.name: cytotoxicity at 70.5 h (%)
Just the number in %, nothing appended.

See these solved cases before continuing.
COc1c(C2CCCN2C(=O)c2csc(C(C)C)n2)c(C)nn1C (stereo unspecified) = -12.3
CC(C)(C)n1ncc2c(=O)[nH]c(N3CCN(CC(F)F)CC3)nc21 = -4.17
COCCN(Cc1cccc(O)c1)CC1CC1 = 29.9
CCN(CC(=O)NC)S(=O)(=O)c1cnc2c(c1)c(C)nn2C = -14.3
COc1cccc2c1N(Cc1nc(C3CC3)no1)CCC2 = 5.14

In: Look up cytotoxicity at 70.5 h of CCc1ccccc1NC(=O)CCc1cnn(C)c1 and report it.
Out: -11.3

In: Specify measured cytotoxicity at 70.5 h for Cc1nc(CN2CCC3(CCCO3)CCC2=O)no1 (stereo unspecified) .
Out: -3.41

In: Return value of cytotoxicity at 70.5 h for input COc1c(C)cnc(CN2CCCCC2Cn2nc(C)nc2C)c1C (stereo unspecified) , no commentary.
Out: 16.8

In: For the molecule CCCn1cc(Cl)c(C(=O)N2C[C@@H](O)[C@H](NC(C)=O)C2)n1 , give its measured cytotoxicity at 70.5 h value.
Out: -8.89

In: Give cytotoxicity at 70.5 h for the following molecule: Cc1cnc(-c2nc(-c3cccc(CN4CCOCC4)c3)no2)cn1
Out: -4.86

In: Identify measured cytotoxicity at 70.5 h associated with O=C1CO[C@@H]2CN(CC3CCOCC3)C[C@H]2N1Cc1ccncc1
Out: -2.17

----------
cytotoxicity at 70.5 h for assorted compounds
Test: Human HepG2 cell viability assay in 384 well format
Type: toxicity, cell-based
Design: dose 125 nL, time 70.5 hour; concentration not given beside the values
Details: HepG2 cells, read-out: Inhibition
Write the value in % as a bare number.

Cc1ccc(-c2ccc(CC3NCCN(C)C3=O)cc2)cc1 (stereo not given) = 20.9
CC(Cn1cnc2cn(C)nc2c1=O)Oc1cccnc1 (stereo not given) = 20.4
Cc1noc(NC(=O)c2ccc(F)cc2)n1 = -3.99
O=C1N(Cc2cccnc2)CCC12CCCNC2 (stereo not given) = 10.6
CCOc1ccc(CNCC(O)c2ccccc2)cc1Cl (stereo not given) = -4.88
CN(C)C(=O)N1Cc2ncn(C)c2C(COCC2CCOCC2)C1 (stereo not given) = -11.9
Cc1cccc(N2CCN(Cc3nc(CC4CC4)no3)CC2)n1 = 1.5
COc1ccc(CNc2nncs2)cc1F = -2.65

In: Hello, please tell me recorded cytotoxicity at 70.5 h for this one: COc1ccc(C(=O)N2CC[C@H](CO)[C@H](O)C2)c(C)c1
Out: -4.34

In: Identify cytotoxicity at 70.5 h associated with the compound CN(CCNC(=O)Nc1ccncc1)C1CCCCC1
Out: 30.8

In: Look up cytotoxicity at 70.5 h of COc1ccc(F)c(-c2ccnc(N)c2)c1 and report it.
Out: -14.3

In: Give recorded cytotoxicity at 70.5 h. NCC1(c2cccc(C(F)(F)F)c2)CCCCC1
Out: -4.79

In: Respond only with cytotoxicity at 70.5 h recorded for CCOc1cccc(CNc2ccccc2C(=O)OC)c1O
Out: 3.64

In: State its cytotoxicity at 70.5 h: COc1cc2ccn(CCCO)c(=O)c2cc1F
Out: -6.17

In: Supply cytotoxicity at 70.5 h value. Item: CCOC(C)C(=O)Nc1ccc(Sc2nncn2C)c(Cl)c1 (stereo not given)
Out: -4.37

In: Assign cytotoxicity at 70.5 h to the following record: COc1cc(OC)c(C2CC(=O)Oc3cc(C)[nH]c(=O)c32)c(OC)c1 (stereo not given)
Out: -20.1

In: Query cytotoxicity at 70.5 h for CCc1ccc(CNC[C@H]2C[C@@H](CO)N(C)[C@H]2c2ccccc2F)o1
Out: -2.04

In: Find the measured cytotoxicity at 70.5 h of Cn1cncc1CN1CCC2(CC1)CCN2c1ncccn1 and report it.
Out: -2.28

In: Specify reported cytotoxicity at 70.5 h for the compound shown: CCc1cc(C(=O)N[C@@H]2CC[C@@H](N3CCOCC3)[C@@H]2O)no1
Out: -4.39

In: For the compound Clc1cccnc1N1CCC(NCc2cccc3cn[nH]c23)C1 (stereo not given) , give its measured cytotoxicity at 70.5 h value.
Out: -4.87

In: Give a short answer stating reported cytotoxicity at 70.5 h for Cn1cc(NC(=O)N2CCC(c3ccccc3)CC2)ccc1=O .
Out: -3.71

In: Return value of cytotoxicity at 70.5 h for input Cc1ccc(CN2CC[C@@H]3CN(S(C)(=O)=O)CCO[C@@H]3C2)o1 , no commentary.
Out: 7.49

In: # return recorded cytotoxicity at 70.5 h for input O=C(NCCc1nnc2n1CCC2)c1ccccc1OC1CCCC1
Out: -9.31

In: Using known records, supply cytotoxicity at 70.5 h for CS(=O)(=O)NC1CCCN(C(=O)NCc2ccoc2)C1 (stereo not given)
Out: 0.0228

In: Name the recorded cytotoxicity at 70.5 h of the compound listed here: c1cc(CN2CCc3ncnc(C4CCOC4)c3CC2)ccn1 (stereo not given)
Out: -6.5
